# target under test: human Serotonin Transporter (SERT), SLC6A4 (gene 6532) (UniProt P31645)
# Sequence (P31645 whole entry, looked up): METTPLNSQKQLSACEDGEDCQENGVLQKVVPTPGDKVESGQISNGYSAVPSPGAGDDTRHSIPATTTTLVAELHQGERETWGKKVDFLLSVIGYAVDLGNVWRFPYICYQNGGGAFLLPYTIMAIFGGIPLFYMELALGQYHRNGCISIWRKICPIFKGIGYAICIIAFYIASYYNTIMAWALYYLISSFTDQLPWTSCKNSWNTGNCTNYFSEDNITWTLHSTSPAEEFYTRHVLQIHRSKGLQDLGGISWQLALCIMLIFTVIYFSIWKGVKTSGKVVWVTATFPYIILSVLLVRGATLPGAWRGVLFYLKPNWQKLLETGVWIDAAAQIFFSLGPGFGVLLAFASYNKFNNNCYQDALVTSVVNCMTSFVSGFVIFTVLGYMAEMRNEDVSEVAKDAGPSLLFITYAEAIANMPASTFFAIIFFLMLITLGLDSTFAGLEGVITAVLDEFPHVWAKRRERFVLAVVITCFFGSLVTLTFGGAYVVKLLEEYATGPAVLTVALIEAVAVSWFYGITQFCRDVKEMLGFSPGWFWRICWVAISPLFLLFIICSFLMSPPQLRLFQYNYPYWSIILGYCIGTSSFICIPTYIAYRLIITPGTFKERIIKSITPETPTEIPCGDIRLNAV
# assay details: NVS_TR_hSERT: NovaScreen (NVS) Transporter Assay for human Serotonin Transporter (SERT) (AID 2283372)
Records with an inconclusive call do not appear. The source made the active and inactive calls. How the source made its calls: active means hit-call score of the fitted dose curve at least 0.9, where 1 is the maximum; inconclusive means response in the unintended direction; inactive means score below 0.9.
result type: outcome

> print(dat)
                                   compound  test.value
1        COCC(C)OCC(C)O (centres undefined)    inactive
2  CCN(CC)CCNc1ccc(CNC=O)c2sc3ccc(OC)cc3c(=O)c12    inactive
3      CCCCCCCCOC(=O)CCCCCCCCC(=O)OCCCCCCCC    inactive
4  NC(=O)N(O)[C@@H]1C=C[C@H](Oc2cccc(Oc3ccc(F)cc3)c2)C1    inactive

---

# assay details: LTEA_HepaRG_LDH_cytotoxicity: Cytotoxicity Assessment in the Life Technologies and Expression Analysis (LTEA) Assay (AID 2283563)
Calls of active or inactive are those of the source. The calls were made as follows: active = hit-call score of the fitted dose curve at least 0.9, where 1 is the maximum; inconclusive = response in the unintended direction; inactive = score below 0.9.
Select the matching outcome among y = active, n = inactive

Worked examples follow.
> print(dat)
                                   compound  label
1               CC(C)(C)c1cccc(C(C)(C)C)c1O      n
2  Cc1oc(-c2ccccc2)nc1CCOc1ccc(C[C@H](Nc2ccccc2C(=O)c2ccccc2)C(=O)O)cc1      y
3                                 OC1CCCCC1      n
4  CCC(C)(C)C1CCC(O)CC1 (configuration not stated)      n
5  O=C(O)Cc1cc(I)c(Oc2cc(I)c(O)c(I)c2)c(I)c1      y
6          CCOC(=O)CC(O)(CC(=O)OCC)C(=O)OCC      n

Now consider a different compound.
Test call for this compound, please: `CN1CCN(c2ccccc2/C=C2\SCCN(c3ccc(Cl)c(Cl)c3)C2=O)CC1`
y

---

# Read-out: serum amyloid A (SAA), SAA1 (gene 6288)
# assay details: BSK_CASM3C_SAA: BioMAP Diversity Plus: CASM3C Assay for serum amyloid A (SAA) Biomarker Activity (AID 2283049);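 further: SAA protein level quantified by ELISA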
# assay context: primary human coronary artery smooth muscle cells; actives raise or lower the signal
Calls of active or inactive are those of the source. Rule for the calls: active = hit-call score of the fitted dose curve at least 0.9, where 1 is the maximum; inactive = score below 0.9.
Select the matching outcome among 1.0 (active), 0.0 (inactive)

Worked examples follow.
> print(dat)
                                    molecule  label
 1                           CC(=O)CC(C)(C)O    0.0
 2         O=C(OCCOCCOC(=O)c1ccccc1)c1ccccc1    0.0
 3                        Cc1cc(C)c(O)c(C)c1    0.0
 4               COCC(C)O (stereo not given)    0.0
 5  N#C[C@@H]1CC(F)(F)CN1C(=O)CNC1CC2CCC(C1)N2c1ncccn1 (stereo not given in full)    0.0
 6  Cc1oc(-c2ccccc2)nc1CCOc1ccc(C[C@H](Nc2ccccc2C(=O)c2ccccc2)C(=O)O)cc1    0.0
 7                                 OC1CCCCC1    1.0
 8                              Oc1cccc(O)c1    0.0
 9   O=C(O)c1ccccc1C(c1ccc(O)cc1)c1ccc(O)cc1    0.0
10   CCC(C)(C)C1CCC(O)CC1 (stereo not given)    0.0

Test call for this molecule, please: `COc1ccc([N+](=O)[O-])cc1N`
0.0

Test call for this molecule, please: CCc1nn(C2CCCCC2)c2cc(C3(C#N)CCC(C(=O)O)CC3)ccc12 (stereo not given)
0.0

---

# target under test: Nuclear respiratory factor 1 (Homo sapiens) (UniProt Q16656)
# Sequence (Q16656 whole entry, looked up): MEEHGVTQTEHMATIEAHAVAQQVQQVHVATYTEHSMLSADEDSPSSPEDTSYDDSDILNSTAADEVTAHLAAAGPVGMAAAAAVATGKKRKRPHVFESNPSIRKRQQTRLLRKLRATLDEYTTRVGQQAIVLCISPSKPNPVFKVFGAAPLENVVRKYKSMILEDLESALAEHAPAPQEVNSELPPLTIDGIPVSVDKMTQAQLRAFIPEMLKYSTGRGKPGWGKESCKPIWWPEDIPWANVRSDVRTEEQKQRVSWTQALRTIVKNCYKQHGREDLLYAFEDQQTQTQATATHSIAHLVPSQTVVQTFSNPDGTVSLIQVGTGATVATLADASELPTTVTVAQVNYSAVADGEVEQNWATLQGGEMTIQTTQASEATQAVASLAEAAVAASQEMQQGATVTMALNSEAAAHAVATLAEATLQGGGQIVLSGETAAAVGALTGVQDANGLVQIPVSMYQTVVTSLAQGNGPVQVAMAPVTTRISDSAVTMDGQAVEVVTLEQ
# assay details: ATG_NRF1_CIS: Attagene CIS-FACTORIAL HepG2 Assay for human Nuclear Respiratory Factor 1 (NRF1) Orphan Gene (AID 2282987)
# assay context: HepG2 NRF1 cis-element reporter, Attagene multiplex; actives raise or lower the signal
Calls of active or inactive are those of the source. Rule for the calls: active = hit-call score of the fitted dose curve at least 0.9, where 1 is the maximum; inactive = score below 0.9.
result type: outcome

See these solved cases before continuing.
> print(dat)
                                   compound  test.value
1   CC[C@H](C)[C@@H](C(=O)O)n1sc2ccccc2c1=O    inactive
2             CC(C)(C)c1ccc(O)c(C(C)(C)C)c1    inactive
3         O=C(OCCOCCOC(=O)c1ccccc1)c1ccccc1    inactive
4  NCC(F)(F)C(F)(F)C(F)(F)C(F)(F)C(F)(F)C(F)(F)C(F)(F)F    inactive
5   CC(C)(C)c1cc(C(C)(C)C)c(O)c(C(C)(C)C)c1    inactive

Kindly note the recorded outcome for COCC(C)O (configuration not stated) , which is inactive

Kindly note the recorded outcome for `NC(=O)N(O)[C@@H]1C=C[C@H](Oc2cccc(Oc3ccc(F)cc3)c2)C1` , which is inactive

Kindly note the recorded outcome for `C#C[C@]1(O)CC[C@H]2[C@@H]3CCC4=CC(=O)CC[C@@H]4[C@H]3CC[C@@]21C` , which is inactive

Kindly note the recorded outcome for `CC(=O)CC(C)(C)O` , which is inactive

Kindly note the recorded outcome for `c1ccc2c(c1)ccc1ccccc12` , which is inactive

Kindly note the recorded outcome for CCCCC(CC)COC(=O)CCCCC(=O)OCC(CC)CCCC (configuration not stated) , which is inactive

Kindly note the recorded outcome for `COc1ccc([N+](=O)[O-])cc1N` , which is inactive

---

# assay details: ATG_XTT_Cytotoxicity: Cytotoxicity Assessment in the Attagene TRANS-FACTORIAL HepG2 Assay (AID 2283584)
Records with an inconclusive call do not appear. The source made the active and inactive calls. Rule for the calls: active = hit-call score of the fitted dose curve at least 0.9, where 1 is the maximum; inconclusive = response in the unintended direction; inactive = score below 0.9.
Select the matching outcome among active, inactive

Worked examples follow.
> print(dat)
                                   compound     label
1  CCc1ccc(CCOc2ccc(CC3SC(=O)NC3=O)cc2)nc1 (configuration not stated)  inactive
2                      CN1CCC[C@H]1c1cccnc1  inactive
3  O=C(O)Cc1cc(I)c(Oc2cc(I)c(O)c(I)c2)c(I)c1  inactive
4          CCOC(=O)CC(O)(CC(=O)OCC)C(=O)OCC  inactive
5  CC1=C(/C=C/C(C)=C/C=C/C(C)=C/C(=O)O)C(C)(C)CCC1  inactive
6         O=C(OCCOCCOC(=O)c1ccccc1)c1ccccc1  inactive
7  CC#C[C@]1(O)CC[C@H]2[C@@H]3CCC4=CC(=O)CCC4=C3[C@@H](c3ccc(N(C)C)cc3)C[C@@]21C  inactive
8                              CCCCCCC(=O)O  inactive

Test call for this compound, please: CCC(C)(C)C1CCC(O)CC1 (configuration not stated)
inactive

Test call for this compound, please: `OCCC(F)(F)C(F)(F)C(F)(F)C(F)(F)C(F)(F)C(F)(F)C(F)(F)C(F)(F)F`
inactive

Test call for this compound, please: `CCCCCCCCCCCCN1CCCC1=O`
active

Test call for this compound, please: `O=c1c(-c2ccc(O)cc2)coc2cc(O)ccc12`
inactive

---

# Read-out: 3-Hydroxy-3-Methylglutaryl-CoA Synthase 2 (HMGCS2), HMGCS2 (gene 3158)
# assay details: LTEA_HepaRG_HMGCS2: Life Technologies and Expression Analysis (LTEA) Assay for 3-Hydroxy-3-Methylglutaryl-CoA Synthase 2 (HMGCS2) using HepaRG (AID 2283504)
# assay context: mRNA level, 48 h; actives raise or lower the signal
Calls of active or inactive are those of the source. Rule for the calls: active = hit-call score of the fitted dose curve at least 0.9, where 1 is the maximum; inactive = score below 0.9.
Select the matching outcome among active, inactive

> print(dat)
                                   compound     label
1  CCCOc1sc(C(=O)N2CCC(c3cc(CN)ccc3F)CC2)c(C)c1Br  inactive

Test call for this compound, please: `O=C(O)Cc1cc(I)c(Oc2cc(I)c(O)c(I)c2)c(I)c1`
active

Test call for this compound, please: COCC(C)OCC(C)O (stereo not drawn)
inactive

Test call for this compound, please: `O=C(O)c1ccccc1C(c1ccc(O)cc1)c1ccc(O)cc1`
inactive

Test call for this compound, please: `CCC(=C(c1ccc(O)cc1)c1ccc(OCCN(C)C)cc1)c1ccccc1`
active

Test call for this compound, please: CCc1ccc(CCOc2ccc(CC3SC(=O)NC3=O)cc2)nc1 (stereo not drawn)
active

Test call for this compound, please: `Cc1cc(C)c(O)c(C)c1`
inactive

Test call for this compound, please: `COC(=O)CCCCC(=O)OC`
inactive

Test call for this compound, please: `Oc1cccc(O)c1`
inactive

Test call for this compound, please: `CC(=O)NC1(c2cccc(F)c2)CCN(CC[C@@]2(c3ccc(Cl)c(Cl)c3)CN(c3ccccc3)C(=O)CO2)CC1`
inactive

Test call for this compound, please: CCc1nn(C2CCCCC2)c2cc(C3(C#N)CCC(C(=O)O)CC3)ccc12 (stereo not drawn)
active

Test call for this compound, please: `CCCCCCCCCCCCc1ccccc1S(=O)(=O)O`
active

Test call for this compound, please: `C=C(C)C(=O)OCCC(F)(F)C(F)(F)C(F)(F)C(F)(F)C(F)(F)C(F)(F)F`
inactive

Test call for this compound, please: `CCCCCCCC(=O)O`
inactive

Test call for this compound, please: `CC(C)(C)c1cc(C(C)(C)C)c(O)c(C(C)(C)C)c1`
active

Test call for this compound, please: CCCCC(CC)COC(=O)CCCCC(=O)OCc1ccccc1 (stereo not drawn)
inactive

Test call for this compound, please: COCC(C)O (stereo not drawn)
inactive

Test call for this compound, please: `CC#C[C@]1(O)CC[C@H]2[C@@H]3CCC4=CC(=O)CCC4=C3[C@@H](c3ccc(N(C)C)cc3)C[C@@]21C`
active

Test call for this compound, please: `CCCCCCCCOC(=O)CCCCCCCCC(=O)OCCCCCCCC`
inactive

Test call for this compound, please: `O=[N+]([O-])c1ccc(O)cc1`
inactive

Test call for this compound, please: `CC1=C(/C=C/C(C)=C/C=C/C(C)=C/C(=O)O)C(C)(C)CCC1`
active

Test call for this compound, please: `CN1CCN(c2ccccc2/C=C2\SCCN(c3ccc(Cl)c(Cl)c3)C2=O)CC1`
active

Test call for this compound, please: `COc1ccc([N+](=O)[O-])cc1N`
inactive

Test call for this compound, please: `Cc1oc(-c2ccccc2)nc1CCOc1ccc(C[C@H](Nc2ccccc2C(=O)c2ccccc2)C(=O)O)cc1`
active
